Target or test system: VAV1 (Homo sapiens, UniProt P15498+Q96SW2)
Construct: A heterozygous VAV1 C-terminal HiBiT knock-in pool was generated at Monte Rosa Therapeutics from a clonal Jurkat cell; endogenous in cells; host or cells: Jurkat clone stably expressing LgBiT, homozygous GSPT1-G575N; heterozygous VAV1-HiBiT knock-in pool
Experiment summary: VAV1 degradation activity, VAV1-HiBiT knock-in Jurkat luminescence assay (Example A, Table 1)
Format: cell-based
Settings: Jurkat, VAV1-HiBiT knock-in Jurkat cells, luminescence read at 6 and 24 hours after compound addition; read-out: VAV1 Dmax %, class
Reported endpoint: Dmax

As a guide, the following entries are already answered.
Molecule | Target or test system | Dmax
Cn1cncc1Cn1ncc2cc(-c3cccc(C4CCC(=O)NC4=O)c3Cl)ccc21 (stereo not drawn) [Compound 508] | VAV1 (Homo sapiens, UniProt P15498+Q96SW2) | > 90%
CC1Cc2cc(-c3cccc(C4CCC(=O)NC4=O)c3Cl)ccc2N1 (stereo not drawn) [Compound 500] | VAV1 (Homo sapiens, UniProt P15498+Q96SW2) | > 90%
O=C1CCC(c2cccc(-c3ccc4c(c3)CC(=O)N4)c2Cl)C(=O)N1 (stereo not drawn) [Compound 493] | VAV1 (Homo sapiens, UniProt P15498+Q96SW2) | 60 to 90%

Ask: Fill blank: measured Dmax of the molecule O=C1CCC(c2cccc(-c3ccc4c(c3)OCCN4)c2Cl)C(=O)N1 (stereo not drawn) [Compound 487] is ____.
Result: 60 to 90%

Ask: Fill blank: measured Dmax of the molecule O=C1CCC(c2cccc(-c3ccc4c(c3)CC(=O)N4Cc3cocn3)c2Cl)C(=O)N1 (stereo not drawn) [Compound 505] is ____.
Result: 60 to 90%

Ask: Fill blank: measured Dmax of the molecule O=C1CCC(c2cccc(-c3ccc4cn[nH]c4c3)c2Cl)C(=O)N1 (stereo not drawn) [Compound 484] is ____.
Result: 60 to 90%

Ask: Fill blank: measured Dmax of the molecule O=C1CCC(c2cccc(-c3ccc4c(c3)CCN4)c2F)C(=O)N1 (stereo not drawn) [Compound 491] is ____.
Result: 60 to 90%

Ask: Fill blank: measured Dmax of the molecule Cn1ccc(Cn2ncc3cc(-c4cccc(C5CCC(=O)NC5=O)c4Cl)ccc32)n1 (stereo not drawn) [Compound 498] is ____.
Result: > 90%

Ask: Fill blank: measured Dmax of the molecule O=C1CCC(c2cccc(-c3ccc4[nH]ncc4c3)c2Cl)C(=O)N1 (stereo not drawn) [Compound 485] is ____.
Result: 60 to 90%

Ask: Fill blank: measured Dmax of the molecule Cn1cccc(N2CCc3cc(-c4cccc(C5CCC(=O)NC5=O)c4Cl)ccc32)c1=O (stereo not drawn) [Compound 509] is ____.
Result: > 90%

Ask: Fill blank: measured Dmax of the molecule Cn1ccc(CN2C(=O)Cc3cc(-c4cccc(C5CCC(=O)NC5=O)c4Cl)ccc32)n1 (stereo not drawn) [Compound 496] is ____.
Result: > 90%

Ask: Fill blank: measured Dmax of the molecule O=C1CCC(c2cccc(-c3ccc4c(c3)CCC(=O)N4)c2Cl)C(=O)N1 (stereo not drawn) [Compound 492] is ____.
Result: > 90%

Ask: Fill blank: measured Dmax of the molecule Cn1ccc(CN2C(=O)COc3cc(-c4cccc(C5CCC(=O)NC5=O)c4Cl)ccc32)n1 (stereo not drawn) [Compound 502] is ____.
Result: > 90%

Ask: Fill blank: measured Dmax of the molecule Cn1ccc(Cn2ccc3cc(-c4cccc(C5CCC(=O)NC5=O)c4Cl)ccc32)n1 (stereo not drawn) [Compound 499] is ____.
Result: > 90%

Ask: Fill blank: measured Dmax of the molecule Cn1ccc(Cn2c(=O)oc3cc(-c4cccc(C5CCC(=O)NC5=O)c4Cl)ccc32)n1 (stereo not drawn) [Compound 507] is ____.
Result: > 90%

====

Target or test system: VAV1 (Homo sapiens, UniProt P15498+Q96SW2)
Construct: A heterozygous VAV1 C-terminal HiBiT knock-in pool was generated at Monte Rosa Therapeutics from a clonal Jurkat cell; endogenous in cells; host or cells: Jurkat clone stably expressing LgBiT, homozygous GSPT1-G575N; heterozygous VAV1-HiBiT knock-in pool
Experiment summary: VAV1 degradation activity, VAV1-HiBiT knock-in Jurkat luminescence assay (Example A, Table 1)
Assay type: cell-based
Settings: VAV1-HiBiT knock-in Jurkat cells, luminescence read at 6 and 24 hours; read-out: VAV1 DC50
Reported endpoint: DC50 (µM)

As a guide, the following entries are already answered.
Molecule | DC50, µM
O=C1CCC(c2cccc(-c3ccc(-c4cccc5ocnc45)cc3)c2Cl)C(=O)N1 (centres unmarked) [Compound 460] | 0.277
O=C1CCC(c2cccc(-c3ccc(CN4C(=O)CC45CCOCC5)cc3)c2Cl)C(=O)N1 (centres unmarked) [Compound 278] | 0.00533

P = O=C1CCC(c2cccc(-c3ccc(N4C(=O)OCCC4C(F)(F)F)cc3)c2Cl)C(=O)N1 (centres unmarked) [Compound 305]
Q = O=C1CCC(c2cccc(-c3ccc(CN4CCOCC4=O)cc3)c2Cl)C(=O)N1 (centres unmarked) [Compound 302]
R = CN1CCCN(Cc2ccc(-c3cccc(C4CCC(=O)NC4=O)c3Cl)cc2)C1=O (centres unmarked) [Compound 424]
S = CC1(C)CCC(=O)N(Cc2ccc(-c3cccc(C4CCC(=O)NC4=O)c3Cl)cc2)C1 (centres unmarked) [Compound 284]
T = O=C1CCC(c2cccc(-c3ccc(OC4CCOC4)cc3)c2Cl)C(=O)N1 (centres unmarked) [Compound 109]
Ask: Arrange by DC50, high to low. Response field: labels, in requested order.
Result: T, Q, P, R, S
(T: 0.678 µM, Q: 0.0921 µM, P: 0.0196 µM, R: 0.00994 µM, S: 0.00348 µM)

I = CC1(C)CN(c2cccc(-c3ccc(CC4CCC(=O)NC4=O)cc3Cl)c2)C(=O)CO1 (centres unmarked) [Compound 268]
II = O=C1CCC(c2cccc(-c3ccc(N4CC5CC5C4=O)cc3)c2Cl)C(=O)N1 (centres unmarked) [Compound 319]
III = O=C1CCC(c2cccc(-c3ccc(-n4cccc(CC(F)F)c4=O)cc3)c2Cl)C(=O)N1 (centres unmarked) [Compound 444]
IV = O=C1CCC(c2cccc(-c3ccc(CN4C(=O)CC45CCC5)cc3)c2Cl)C(=O)N1 (centres unmarked) [Compound 279]
Ask: Arrange these 4 molecules in increasing order of DC50. Response field: labels, in requested order.
Result: IV, III, I, II
(IV: 0.00483 µM, III: 0.0071 µM, I: 0.0128 µM, II: 0.104 µM)

a = O=C1CCC(c2cccc(-c3ccc(N4C(=O)OCCC45CCC5)nc3)c2Cl)C(=O)N1 (centres unmarked) [Compound 359]
b = O=C1CCC(c2cccc(-c3cnc(N4CCCCC4=O)c(F)c3)c2Cl)C(=O)N1 (centres unmarked) [Compound 369]
c = O=C1CCC(c2cccc(-c3ccc(NC(=O)C4CCOC4)cc3)c2Cl)C(=O)N1 (centres unmarked) [Compound 227]
Ask: Arrange these 3 molecules in increasing order of DC50. Response field: labels, in requested order.
Result: a, c, b
(a: 0.0133 µM, c: 0.0818 µM, b: 0.331 µM)

====

Target or test system: VAV1 (Homo sapiens, UniProt P15498+Q96SW2)
Construct: A heterozygous VAV1 C-terminal HiBiT knock-in pool was generated at Monte Rosa Therapeutics from a clonal Jurkat cell; endogenous in cells; host or cells: Jurkat clone stably expressing LgBiT, homozygous GSPT1-G575N; heterozygous VAV1-HiBiT knock-in pool
Experiment summary: VAV1 degradation activity, VAV1-HiBiT knock-in Jurkat luminescence assay (Example A, Table 1)
Assay type: cell-based
Settings: Jurkat, VAV1-HiBiT knock-in Jurkat cells, luminescence read at 6 and 24 hours; read-out: VAV1 Dmax %, class
This listing pairs compounds with measured Dmax.

Compound | Value reported
O=C1CCC(c2cccc(-c3ccc(N4C(=O)C5CC4C5)cc3)c2Cl)C(=O)N1 (centres unmarked) | < 60%
O=C1CCC(c2cccc(-c3ccc(C4COC4)cc3)c2Cl)C(=O)N1 (centres unmarked) | < 60%
O=C1CCC(c2cccc(-c3ccc(Oc4ncccn4)cc3)c2Cl)C(=O)N1 (centres unmarked) | > 90%
C#Cc1ccc(C2CCC(=O)NC2=O)c(Cl)c1-c1ccc(OCc2ccn(C)n2)cc1 (centres unmarked) | < 60%
O=C1CCC(c2cccc(-c3ccc(NC(=O)c4ccno4)cc3)c2Cl)C(=O)N1 (centres unmarked) | 60 to 90%

Ask: Request: Dmax, test system VAV1 (Homo sapiens, UniProt P15498+Q96SW2), entry O=C1CCC(c2cccc(-c3ccc(CN4CCCCC4=O)nc3)c2Cl)C(=O)N1 (centres unmarked)
Result: < 60%

Ask: Request: Dmax, test system VAV1 (Homo sapiens, UniProt P15498+Q96SW2), entry Cn1ccc(COc2ccc(-c3cc(C#N)cc(C4CCC(=O)NC4=O)c3Cl)cc2)n1 (centres unmarked)
Result: < 60%

Ask: Request: Dmax, test system VAV1 (Homo sapiens, UniProt P15498+Q96SW2), entry O=C1CCC(c2cccc(-c3ccc4c(c3)CCCO4)c2Cl)C(=O)N1 (centres unmarked)
Result: > 90%

Reference source for all entries: patent US12257247B2
